target under test: pooled human IgG (human IgG1,2,3 and 4)
readout name: Enzyme Activity Endpoint Assay (purified): scIgG (ng/µL)
Answers are plain numbers, in ng/µL.

Study these solved cases before continuing.
Request the reported Enzyme Activity Endpoint Assay (purified): scIgG associated with PRT-353 (protein) MSQTEDSESLQRLRDIEDFQAEKEMQNVVYTKWLDGVDVKDHDFRKIVDGNSAYYATPLLNGRGWYDINKDFNRDSDKCAAAVAANMFHYWLDINRDNVDRFLRQNPEKHGIIELPDGQLKLSDFLNTYESDHGYRDKSKLFDFISENFNGPVWTDKLLDNYINGYAYNSKYGRTIEDPTKNTSKINFFKEVFNEKILTNNHSIRNQNEFSVLLIEALYTGKAIGLSYGPAGLRHGLGHIISVWGADLDADGNVVAIYVTDSDDKKLTIGDERVGLKRYKISTDDENRLRLTAYEETHNTGGQVRGLWTLDTGKYAWADYFDKTEQTGTDQAEQ
767

Request the reported Enzyme Activity Endpoint Assay (purified): scIgG associated with PRT-348 (protein) MSQTEDSESLQRLRDIEDFQAEKKDQNVVYTKWLDGVDVKDHDFRKIVDGNIAYYATPLLNGRGWYDINKDFNRDSDKCAAAVAANMFHYWLDINRDNVDRFLRQNPEKHGIIELPDGQLKLSDFLNTYESDHGYRDKSKLFDFISENFNGPVWTDKLLDNYINGYAYNYKYGRTIEDPTKNTSKINFFKEVFNEKILTNNHSIRNQNEFSVLLIEALYTGKAIGLSYGPAGLRHSLGHIISVWGADLDADGNVVAIYVTDSDDKKLTIGDERVGLKRYKISTDDENRLRLTAYEETHNTGGQVRGLWTLDTGKYAWADYFDKTEQTGTDQAEQ
325

Request the reported Enzyme Activity Endpoint Assay (purified): scIgG associated with PRT-337 (protein) MTITSVWTKGVTPPTPEDFRKNNEDVLHAPYLANQGWYDITKAFDGKDNLLCGAATAGNMLHWWFDQNKEEIERYLKKHPEKQKIIFNNQELFDVKAAIDTKDSQTNSKLFNYFRDKAFPNLSARQLGVMPDLVLDMFINGYYLNLGKTQSTDVNRPYQDKDKRGGIFDAVFTRGDQTTLLTARHDLKNKGLNEISDLIKQELTEGKALALSHTYANVSINHVINLWGADFDAEGNLEAIYVTDSDANASIGMKKYFVGRNAHGKVAISAKKIEGDNIGAQVLGLFTLSTGQDIWQKLS
259

Consider the additional protein presented here.
Request the reported Enzyme Activity Endpoint Assay (purified): scIgG associated with PRT-363 (protein) MSQTEDSESLQRLRDIEDFQAEKEKQNVVYTKWLDGVDVKDHDFRKIVDGNSAYYATPLLNGRGWYDINKDFNRDSDKCAAAVAANMFHYWLDRNRDNVDRFLRQNPEKHGIIELPDGQLKLSDFLNTYESDDGYRDKSKLFDFISENFNGPVWTDKLLDNYINGYAYNSKYGRTIEDPTKNTSKINFFKEVFNEKILTNNHSIRNQNEFSVLLIEALYTGKAIGLSYGPAGLRHGLGHIISVWGADLDADGNVVAIYVTDSDDKKLTIGDERVGLKRYKISTDDEGRLRLTAYEETHNTGGQVRGLWTLDTGKQAWADYFDKTEQTGTDQAEQ
354
